- TEST TARGET: Human immunodeficiency virus type 1 integrase (Human immunodeficiency virus 1)
- Sequence (Q7ZJM1 whole entry): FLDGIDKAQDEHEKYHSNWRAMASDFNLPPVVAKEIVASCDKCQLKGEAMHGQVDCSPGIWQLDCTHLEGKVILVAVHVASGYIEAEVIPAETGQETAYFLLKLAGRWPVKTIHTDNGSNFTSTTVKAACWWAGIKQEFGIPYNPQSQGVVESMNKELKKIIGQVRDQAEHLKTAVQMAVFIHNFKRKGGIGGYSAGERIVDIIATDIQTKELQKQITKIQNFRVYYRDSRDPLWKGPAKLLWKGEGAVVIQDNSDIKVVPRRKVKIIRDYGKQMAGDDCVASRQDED
- TEST: Inhibition of HIV1 integrase 3'-processing activity by gel-based assays
pIC50: −log10 of the molar value.

| SMILES ENTRY | CENSORING SIGN | pIC50 |
| --- | --- | --- |
| O=C(O)/C(O)=C/C(=O)c1cn(Cc2ccc(F)cc2)c2cc(N3CCSCC3)ccc2c1=O | = | 4.52 |
| CCOC(=O)/C(O)=C/C(=O)c1cn(Cc2ccc(F)cc2)c2cc(N3CCOCC3)ccc2c1=O | < | 3.95 |
| CN1CCN(c2ccc3c(=O)c(C(=O)/C=C(\O)C(=O)O)cn(Cc4ccc(F)cc4)c3c2)CC1 | = | 5.07 |
| CCOC(=O)/C(O)=C/C(=O)c1cn(Cc2ccc(F)cc2)c2cc(N(C)C)ccc2c1=O | = | 4.39 |
| O=C(O)/C(O)=C/C(=O)c1cn(Cc2ccc(F)cc2)c2cc(N3CCOCC3)ccc2c1=O | = | 4.89 |
| CCOC(=O)/C(O)=C/C(=O)c1cn(Cc2ccc(F)cc2)c2cc(N3CCN(CCCCl)CC3)ccc2c1=O | = | 3.99 |
| CCN1CCN(c2ccc3c(=O)c(C(=O)/C=C(\O)C(=O)O)cn(Cc4ccc(F)cc4)c3c2)CC1 | = | 4.64 |
| CCOC(=O)/C(O)=C/C(=O)c1cn(Cc2ccc(F)cc2)c2cc(N3CCN(C(C)=O)CC3)ccc2c1=O | = | 4.77 |
| O=C(O)/C(O)=C/C(=O)c1cn(Cc2ccc(F)cc2)c2cc(N3CCN(CCCCl)CC3)ccc2c1=O | = | 5.34 |
| CCOC(=O)/C(O)=C/C(=O)c1cn(Cc2ccc(F)cc2)c2cc(N3CCNCC3)ccc2c1=O | < | 3.48 |
